This listing pairs binders with measured pKd.
# MEASURED TARGET: T1, CIRV p19 (Carnation Italian ringspot virus, UniProt Q66104 1-172)
# T1 sequence: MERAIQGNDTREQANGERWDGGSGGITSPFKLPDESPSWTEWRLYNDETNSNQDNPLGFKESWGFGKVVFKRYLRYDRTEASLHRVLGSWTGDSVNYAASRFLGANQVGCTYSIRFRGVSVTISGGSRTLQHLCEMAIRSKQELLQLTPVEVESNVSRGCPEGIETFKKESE
# ASSAY EXPLANATION: EMSA
# TEST SETTINGS: protein: recombinant; tags: GST tag removed (PreScission, pGEX-6P-1); chain copies: 2; label: 5'-32P; 3' overhangs 2 nt, G-U wobble
Hey, just a heads up that pKd is the negative log base 10 of the concentration in molar.

Known pKd results, listed for orientation:
> print(dat)
                                     binder  measured.endpoint  observed.value
1  miR162-11gU/9*G (dsRNA, 5'-phosphate) RNA 1: UCGAUAAACCUCUGCAUCCAG RNA 2: GGAUGCAGGGGUUCAUCGAUC                pKd            9.85
2  miR162-14gU/6*G (dsRNA, 5'-phosphate) RNA 1: UCGAUAAACCUCUUCAUCCAG RNA 2: GGAUGGAGAGGUUCAUCGAUC                pKd            9.35
3  miR162-15gU/5*G (dsRNA, 5'-phosphate) RNA 1: UCGAUAAACCUCUGUAUCCAG RNA 2: GGAUGCAGAGGUUCAUCGAUC                pKd           10.00
4  miR162-12gU/8*G (dsRNA, 5'-phosphate) RNA 1: UCGAUAAACCUUUGCAUCCAG RNA 2: GGAUGCAGAGGUUCAUCGAUC                pKd            8.71
5  miR162-10gU/10*G (dsRNA, 5'-phosphate) RNA 1: UCGAUAAACUUCUGCAUCCAG RNA 2: GGAUGCAGAGGUUCAUCGAUC                pKd            9.20
6  miR162-18gU/2*G (dsRNA, 5'-phosphate) RNA 1: UCGAUAAACCUCUGCAUUCAG RNA 2: GGAUGCAGAGGUUCAUCGAUC                pKd            9.89

In: Endpoint output: pKd of miR162-19gU/1*G (dsRNA, 5'-phosphate) RNA 1: UCGAUAAACCUCUGCAUCUAG RNA 2: GGAUGCAGAGGUUCAUCGAUC . Value?
Out: 9.82

In: Endpoint output: pKd of miR162-17gU/3*G (dsRNA, 5'-phosphate) RNA 1: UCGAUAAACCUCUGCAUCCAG RNA 2: GGGUGCAGAGGUUCAUCGAUC . Value?
Out: 10.05

In: Endpoint output: pKd of miR162-16gU/4*G (dsRNA, 5'-phosphate) RNA 1: UCGAUAAACCUCUGCUUCCAG RNA 2: GGAGGCAGAGGUUCAUCGAUC . Value?
Out: 9.77

In: Endpoint output: pKd of miR162-13gU/7*G (dsRNA, 5'-phosphate) RNA 1: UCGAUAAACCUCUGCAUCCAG RNA 2: GGAUGCGGAGGUUCAUCGAUC . Value?
Out: 8.74
